# Study Target: human orexin-1 receptor (Homo sapiens (Human), UniProt O43613)
# Sequence (O43613 whole entry): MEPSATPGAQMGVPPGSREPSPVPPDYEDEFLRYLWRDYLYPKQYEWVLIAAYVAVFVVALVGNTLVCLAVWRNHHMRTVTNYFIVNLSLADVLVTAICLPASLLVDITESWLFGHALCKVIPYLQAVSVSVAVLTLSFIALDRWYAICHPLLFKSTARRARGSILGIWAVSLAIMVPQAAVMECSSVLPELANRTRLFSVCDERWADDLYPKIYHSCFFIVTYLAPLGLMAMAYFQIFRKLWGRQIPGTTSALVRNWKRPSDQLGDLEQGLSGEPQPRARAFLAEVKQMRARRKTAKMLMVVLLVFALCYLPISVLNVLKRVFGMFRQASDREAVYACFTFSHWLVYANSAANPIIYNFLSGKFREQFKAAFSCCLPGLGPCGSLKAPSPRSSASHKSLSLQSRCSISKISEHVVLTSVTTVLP
# Protocol: In vitro assay: intracellular calcium measurements (FLIPR), antagonistic activity
# Experimental Conditions: CHO cells expressing human orexin-1 receptor, orexin-A agonist, geometric mean, read-out: IC50 Ox1
pIC50: −log10 of the molar value.
Measurement Label: pIC50

Cc1ccc(C(=O)N2CCC[C@@]2(C)c2nc3c(C)c(C)c(Br)cc3[nH]2)c(-n2nccn2)c1C [Ex. 5.267]; 7.92
Cc1nc(C(=O)N2CC[C@H](C)[C@H]2c2nc3cc(C(F)(F)F)ccc3[nH]2)c(-c2ccc(Br)cc2)s1 [Ex. 4.142]; 8.22
Cc1c(Cl)ccc2[nH]c([C@]3(C)CCCN3C(=O)c3c(F)cccc3-c3ncccn3)nc12 [Ex. 5.222]; 7.59
Cc1cc(C)c2nc(C3CCCN3C(=O)c3nc(C)sc3-c3ccccc3)[nH]c2c1 (centres unmarked) [Ex. 1.127]; 7.48
COc1ccc(-c2ccc(C#N)cc2)c(C(=O)N2CCC[C@@]2(C)c2nc3c(C)c(Cl)ccc3[nH]2)c1F [Ex. 5.308]; 7.68

[I] Cc1ccc(-n2nccn2)c(C(=O)N2CCC[C@@]2(C)c2nc3cc(Br)cc(C)c3n2C)c1 [Example 7.4]
[II] C=C1C[C@@H](c2nc3ccc(OC)cc3[nH]2)N(C(=O)c2cc(OC)ccc2-n2nccn2)C1 [Ex. 6.140]
[III] Cc1ccc(-c2cccc(C)c2C)c(C(=O)N2CCC[C@@]2(C)c2nc3cc(C(F)(F)F)c(Cl)cc3[nH]2)c1 [Ex. 5.161]
[IV] CO[C@@H]1C[C@@H](c2nc3ccc(Cl)c(C)c3[nH]2)N(C(=O)c2nc(N(C)C)sc2-c2cccc(Cl)c2)C1 [Ex. 3.41]
Prompt line: Provide the items ranked by increasing pIC50. List each label, following the requested order.
Response line: II, III, I, IV
